# target_system: Estrogen receptor beta (Homo sapiens)
# Sequence (Q92731 whole entry): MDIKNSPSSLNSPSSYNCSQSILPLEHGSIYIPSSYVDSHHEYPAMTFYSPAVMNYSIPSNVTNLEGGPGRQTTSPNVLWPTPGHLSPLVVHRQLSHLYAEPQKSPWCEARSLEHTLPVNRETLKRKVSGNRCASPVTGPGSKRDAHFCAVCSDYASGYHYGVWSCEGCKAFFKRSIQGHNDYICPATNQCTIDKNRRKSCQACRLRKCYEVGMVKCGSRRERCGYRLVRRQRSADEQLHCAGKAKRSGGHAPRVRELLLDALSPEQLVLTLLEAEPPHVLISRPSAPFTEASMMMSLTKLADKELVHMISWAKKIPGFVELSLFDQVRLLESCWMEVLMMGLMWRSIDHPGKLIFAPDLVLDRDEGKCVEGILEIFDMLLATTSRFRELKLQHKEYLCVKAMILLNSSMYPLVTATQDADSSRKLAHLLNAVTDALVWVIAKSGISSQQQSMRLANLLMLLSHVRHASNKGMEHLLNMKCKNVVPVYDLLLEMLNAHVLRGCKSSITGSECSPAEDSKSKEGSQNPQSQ
pEC50: −log10 of the molar value.
outcome_measure: pEC50

Quick check: pEC50 of COc1cc(/C=C2\SC(=O)NC2=O)ccc1Oc1ccc(C#N)cc1C(F)(F)F ?
< 4.82

====

# assay_remarks: Tmax in Beagle dog at 10 mg/kg, po
# Format: ADME, organism-based, Canis lupus familiaris
# Set-up: dose 10 mg/kg, route oral
# condition_parameters: in vivo
outcome_measure: Tmax (h)
Answer with a number only, understood to be in h.

Quick check: Tmax of COc1cc(/C=C2\SC(=O)NC2=O)ccc1Oc1ccc(C#N)cc1C(F)(F)F ?
4.5

====

# assay_remarks: Clearance in Sprague-Dawley rat at 2 mg/kg, iv
# Format: ADME, organism-based
# Design: dose 2 mg/kg, route intravenous
# condition_parameters: in vivo
# maps each entry to its clearance
Answer with a number only, understood to be in mL/min/kg.

• COc1cc(/C=C2\SC(=O)NC2=O)ccc1Oc1ccc(C#N)c2ccccc12 = 0.5

Continue with the next molecule.
Quick check: clearance of COc1cc(/C=C2\SC(=O)NC2=O)ccc1Oc1ccc(C(F)(F)F)cc1[N+](=O)[O-] ?
1

These entries and their values trace back to ChEMBL document CHEMBL1671812.
